Tested on: RBL-2H3 cells
Test: Inhibition of 3H-serotonin release induced by ADNP/DNP-HSA immunogenic stimulation in RBL-2H3 cells
Type: cell-based, rat
Settings: Rattus norvegicus, RBL-2H3, read-out: EC50, concentration inhibiting by 50% the net release of 3H serotonin, 0.2% DMSO; 15 minutes release period (Table 9)
Please provide measured EC50 for the entries that follow.
Report as a plain number; the unit µM is understood.

Report EC50 under test system RBL-2H3 cells for CCCCCCCCCCCCCCCC(=O)NC[C@H](C)O [Example 33, N-palmitoyl-[S(+)-1-amino-2-propanol]] .
4.7

Report EC50 under test system RBL-2H3 cells for CCCCCCCCCCCC(=O)NCCCO [Example 12, N-(3-hydroxypropyl)-lauroylamide] .
44

Report EC50 under test system RBL-2H3 cells for CCCCCCCCCCCCCCCC(=O)NCCc1ccc(O)cc1 [Example 34, N-(p-hydroxy-phenylethyl)-palmitoylamide] .
13

Report EC50 under test system RBL-2H3 cells for CCCCCCCCCCCC(=O)N[C@H](C)[C@@H](O)c1ccccc1 [Example 6, N-lauroyl-[(1S,2R)-(+)-norephedrine]] .
30

Report EC50 under test system RBL-2H3 cells for CCCCCCCCCCCCCCCC(=O)N[C@@H](C)[C@H](O)c1ccccc1 [Example 7, N-palmitoyl-[(1R,2S)-(-)-norephedrine]] .
4.7

Report EC50 under test system RBL-2H3 cells for CCCCCCCCCCCCCCCC(=O)N[C@H](C)CO [Example 30, N-palmitoyl-[R(-)-2-amino-1-propanol]] .
3.9

Report EC50 under test system RBL-2H3 cells for CCCCCCCCCCCC(=O)N[C@@H](C)[C@H](O)c1ccccc1 [Example 8, N-lauroyl-[(1R,2S)-(-)-norephedrine]] .
18
